# System: MOLT-4 leukemia
# PROTOCOL NOTES: NCI-60 one-dose screen, 48 h
# MEASUREMENT SETUP: 10 µM unless noted
Compounds without any hit were thinned out: in the full panel of roughly 83,000, 20% have a hit. Activity calls are given as the source filed them. How the source made its calls: active means growth percent below 10; inactive means the rest.
Classes to choose from: active, inactive

See these solved cases before continuing.
# COMPOUND, CLASS
rows = [
    ("CCCC(=O)CC(C)=O.CCCC(=O)CC(C)=O.[Cu]", "inactive"),
    ("Cn1nc(C(C)(C)C)cc1NC(=O)Cc1ccc(/C=C2\\C(=O)Nc3ccccc32)cc1", "active"),
    ("Oc1c(CN2CCN(c3ccccc3F)CC2)cc(Br)c2cccnc12", "active"),
    ("NNC(=O)CNC(=O)Nc1n[nH]c(=S)s1", "inactive"),
    ("CS(=O)(=O)Nc1ccc(C(=O)NC(C(=O)NO)c2ccc(-c3cccc(F)c3)cc2)cc1 (configuration not stated)", "inactive"),
    ("O=c1oc2ccc(F)cc2c(=O)n1-c1ccc(I)cc1F", "active"),
    ("COc1cccc2c(=O)c3c(sc12)c(NCCCNCCO)nc1ccccc13", "active"),
    ("COc1ccccc1C1=C(Br)C(=O)c2nc(C)ccc2C1=O", "inactive"),
]

Input line: Dear colleague, could you share the recorded outcome for O=C1/C(=C/c2ccc(O)cc2)COc2ccc(O)c(O)c21 when you have a moment?
Output line: active

Input line: Hello, I am checking results. What call was entered for CCOC(=O)c1sc(-c2ccc(OS(=O)(=O)c3ccccc3[N+](=O)[O-])c(C=O)c2)nc1C ?
Output line: active

Input line: Each compound tested received a call. Report the one for O=C(/C=C/c1ccc(F)cc1)c1ccc(Nc2nc(NCCO)nc(Nc3ccc(Cl)cc3)n2)cc1 .
Output line: inactive

###

# Tested on: MALME-3M melanoma
# PROTOCOL NOTES: NCI-60 one-dose screen, 48 h
# MEASUREMENT SETUP: 10 µM unless noted
Compounds without any hit were thinned out: in the full panel of roughly 83,000, 20% have a hit. Active and inactive are the calls of the source. Rule for the calls: active = growth percent below 10; inactive = the rest.
Return exactly one item of yes = active, no = inactive

As a guide, the following entries are already answered.
# COMPOUND, CLASS
data = [
    ("COc1ccc(-n2c(C(O)c3ccccc3)nn(CN3CCOCC3)c2=S)cc1 (stereo not given)", "no"),
    ("COc1cc2nc(NC3CCCC3)nc(NC3CCN(C(C)C)CC3)c2cc1OC", "no"),
    ("COc1ccc(N2C(=O)CC(c3cc(OC)c(OC)c(OC)c3)C3C2=NC(=O)N3C)cc1 (stereo not given)", "no"),
]

Input line: Tell me the assay call for COc1ccccc1C(=O)/C=C/c1ccccc1 please.
Output line: no

Input line: # fetch the recorded call for CCCC(c1nnnn1C1CCCCC1)N1CCN(C(=O)c2ccco2)CC1 (stereo not given) here
Output line: no

Input line: # outcome recorded in this test, key = O=C(Nc1ccc(F)cc1F)c1cc(Br)ccc1O
Output line: yes

Input line: Check the results log: what was the call for COc1ccc(-c2nnc(COc3ccc(C(=O)/C=C/c4ccco4)cc3)o2)cc1 ?
Output line: no

Input line: Tell me the recorded outcome of this test for O=C(Nc1nc2c(s1)CCc1c-2c(Br)n(Cc2ccccc2)c1Br)c1ccccc1 .
Output line: yes

Input line: What classification did CN1CCN(Cc2ccc(C(=O)Nc3cncc(C#Cc4cnc(N)c5ccccc45)c3)cc2C(F)(F)F)CC1 end up with in this test?
Output line: yes

Input line: Lab log entry: O=C(CSc1nc2ccccc2c(=O)n1-c1ccccc1)Nc1ccc(C(=O)/C=C/c2ccc(Cl)cc2)cc1 — outcome as called in the assay?
Output line: no

###

# Test system: DU-145 prostate
# PROTOCOL NOTES: NCI-60 one-dose screen, 48 h
# MEASUREMENT SETUP: 10 µM unless noted
This is part of a sample that, as a whole, favours compounds with a hit. Of some 83,000 tested, about 20% had one in any assay. Active and inactive are the calls of the source. How the source made its calls: active means growth percent below 10; inactive means the rest.
Give your call using only these classes: t for active, f for inactive

Here are 3 compounds together with their reported answers.
# COMPOUND, CLASS
measured = [
    ("Cc1ccc(S(=O)c2ccc([N+](=O)[O-])c3nonc23)cc1 (configuration not stated)", "f"),
    ("S=C1CCCC(=S)N1", "f"),
    ("O=C(N/N=C/c1ccccc1O)C(=O)Nc1ccc(F)cc1", "f"),
]

Input line: Which outcome was entered for the compound CN(C)c1ccc(/C=C/c2ccnc3c(O)cccc23)cc1 in this test?
Output line: f

Input line: // return assay outcome for Cc1nc2ccccc2c(/C=C/c2ccc(F)cc2)c1C(N)=O
Output line: f

Input line: How was S=C1NC2(c3ccccc3)CCC(=S)N2c2ccccc21 (configuration not stated) classified in this test?
Output line: f

Input line: # fetch the recorded call for CN1CCN(c2nc(Nc3ccc(O)cc3)nc3ccccc23)CC1 here
Output line: f

Input line: Identify the outcome logged in this assay for the compound shown: Clc1ccc(-c2nnc(COc3ccc(C4=NNC(c5ccco5)C4)cc3)o2)cc1 (configuration not stated)
Output line: f

###

# Test system: SK-MEL-2 melanoma
# PROTOCOL NOTES: NCI-60 one-dose screen, 48 h (100 = growth as untreated, 0 = no growth, -100 = all killed)
# MEASUREMENT SETUP: 10 µM unless noted
The panel holds about 83,000 compounds, 20% with a hit somewhere; the sample as a whole holds those more often.
OBSERVABLE: growth (%)
Give bare numbers, in %.

Guide cases for growth, answers given:
# COMPOUND, growth / %
records = [
    ("Cc1cc(Nc2ccc(OCc3ccccc3)cc2)nc2cc(O)ccc12", 70.4),
    ("CCN1C(=O)N(CC)C2Nn3c(s/c(=C4\\C(=O)N(C(C)C)c5ccccc54)c3=O)=NC21 (centres undefined)", 72.9),
    ("O=C(NCCCN1CCC(N2CCCCC2)CC1)C1=Cc2cc(Br)ccc2OC1", 35.5),
    ("COc1ccc(-c2cc(=O)c3c(OC)c4ccoc4c(/C=C/C=O)c3o2)cc1", 75.4),
    ("COc1cc(/C=C2\\CN(C)C/C(=C\\c3cc(CN4CCCC4)c(O)c(OC)c3)C2=O)cc(CN2CCCC2)c1O", 92.1),
    ("O=C(Cn1cc(COc2ncnc3c2cnn3-c2ccccc2)nn1)Nc1cccc2ccccc12", 113),
    ("COC(=O)/C(CCC=C(C)C)=C1\\[C@@H](OC(C)=O)C[C@@]2(C)[C@H]1C[C@@H](O)[C@H]1[C@@]3(C)CC[C@H](NCCO)[C@@H](C)[C@@H]3CC[C@@]12C", 109),
    ("COc1ccc(/C=C2\\N=C(c3ccccc3)N(c3ccc(-c4nc5ccc(C)cc5s4)cc3)C2=O)cc1", 85.2),
]

Let us examine a further case.
Input line: Answer with the recorded growth of CCN(CC)c1cc(C)c2cc(NC(=O)c3cccc(OC)c3)ccc2n1 only.
Output line: 98.6

###

For each entry below, report its growth value.
# Test system: OVCAR-5 ovarian
# PROTOCOL NOTES: NCI-60 one-dose screen, 48 h (100 = growth as untreated, 0 = no growth, -100 = all killed)
# MEASUREMENT SETUP: 10 µM unless noted
About 83,000 compounds went through this panel and 20% of them were active in at least one assay; those are over-represented in the sample as a whole.
Give bare numbers, in %.

Need growth for each of these compounds.
1. CCOc1ccc(-c2nonc2NC(=O)c2cccc(C)c2)cc1OCC
2. COc1ccccc1C(=O)/C=C/c1ccccc1
3. O=NN(C(=O)NC1CCC(C(=O)O)CC1)C1CCC(C(=O)O)CC1 (configuration not stated)
4. O=C(Nc1ccc(F)cc1F)c1cc(Cl)ccc1O

Output line:
1. 89.4
2. 101
3. 97.4
4. 15.3

State the recorded growth for every item in the following list.
1. O=C(Cn1cc(COc2ncnc3c2cnn3-c2ccccc2)nn1)Nc1ccccn1
2. O=C(Nc1ccc(Br)cc1F)c1cc(F)ccc1O
3. O=C(CCN1C(=O)c2ccccc2C1=O)Nc1ccc(Cl)cc1

Output line:
[93.7, 25.3, 104]

###

# System: SF-268 CNS
# PROTOCOL NOTES: NCI-60 one-dose screen, 48 h (100 = growth as untreated, 0 = no growth, -100 = all killed)
# MEASUREMENT SETUP: 10 µM unless noted
Compounds without any hit were thinned out: in the full panel of roughly 83,000, 20% have a hit.
OBSERVABLE: growth (%)
Answers are plain numbers, in %.

# MOLECULE, growth / %
records = [
    ("O=c1oc2ccc(F)cc2c(=O)n1-c1ccc(I)cc1F", 12.2),
    ("Nc1ccc(-c2nn3c(CCC(=O)c4nc5ncccc5[nH]4)nnc3s2)c(O)c1", 73.5),
    ("CCOC(=O)CSc1c(-c2ccccc2)c2cc(Cl)ccc2[nH]c1=O", 102),
    ("O=NN(C(=O)NC1CCC(C(=O)O)CC1)C1CCC(C(=O)O)CC1 (centres undefined)", 107),
    ("O=c1oc2ccc(-c3ccc(F)cc3F)cc2c(=O)n1-c1cccc(C(F)(F)F)c1", 12.7),
    ("COC(=O)/C(=C\\c1c(-c2ccccc2)[nH]c2ccccc12)S(C)(=O)=O", 26.8),
    ("O=C(Nc1ccc(I)cc1F)c1cc(Cl)ccc1O", 5.87),
    ("FC(F)(F)c1cccc(Nc2nc(-c3ccccc3)nc3ncccc23)c1", 13.3),
    ("CC(=O)c1ccc(NC(=O)Nc2ccc(S(=O)(=O)Nc3ccc(Cl)nn3)cc2)cc1", 99.2),
    ("CN1C(=O)N(C)C2C1NN=c1s/c(=C\\c3ccc([N+](=O)[O-])cc3)c(=O)n12 (centres undefined)", 77.1),
]

# per-item lookup of growth; items listed below
1. COc1ccc(/C(C#N)=C/c2nc3c(N4CCOCC4)nc(Cl)nc3n2C)cc1OC
2. COC(=O)C1(C)CCC[C@]2(C)[C@H]3C[C@H]4C(C(C)C)=C[C@]3(CC[C@@H]12)[C@H]1[C@@H]4[C@@H](OCC#CCN2CCOCC2)CC[C@@H]1OCC#CCN1CCOCC1 (some centres undefined)
3. Cc1cc2c(c(C)c1Cl)C(=O)/C(=C/c1cccc([N+](=O)[O-])c1)O2
4. COc1ccc(-c2cn3c(C(=O)Nc4ccccc4Cl)c(-c4ccccc4)c4c3n2CCCC4)cc1
5. COc1ccc2c(c1)C=C1CSCC3=Cc4cc(OC)ccc4OC13O2
6. COc1ccc(C2=Nn3c(NN)nnc3SC2)cc1

Output line:
1. 14.5
2. 83.7
3. 100
4. 93.1
5. 41.1
6. 100
